Tested on: Staphylococcus aureus
Method description: Growth on agar plates containing sodium surfactant; note: test concentration or dose not given here
Assay type: cell-based
Reported conditions: agar plates with sodium surfactant; strain ATCC6538; replicates 1-2 or 1-3
Property measured: Survival: No Growth/Full Growth

| Compound | Result |
| --- | --- |
| CCCCC(CC)COP(=O)([O-])OCCC(CC)CCC.[Na+] (stereo not shown) | − |
| O=C(CC(C(=O)OC1CCCCC1)S(=O)(=O)[O-])OC1CCCCC1.[Na+] (stereo not shown) | + |
| CC(C)CC(C)OC(=O)CC(C(=O)OC(C)CC(C)C)S(=O)(=O)[O-].[Na+] (stereo not shown) | − |
| CCCCC(CC)COC(=O)CC(C(=O)OCC(CC)CCCC)S(=O)(=O)[O-].[Na+] (stereo not shown) | − |

* * *

Test system: Staphylococcus aureus
Method description: Growth on agar plates containing sodium surfactant; note: test concentration or dose not given here
Format: cell-based
Reported conditions: agar plates with sodium surfactant; strain EM24/ATCC25923; replicates 1-2 or 1-3
Property measured: Survival: No Growth/Full Growth

| Molecule | Result |
| --- | --- |
| CCCCC(CC)COP(=O)([O-])OCCC(CC)CCC.[Na+] (stereo not shown) | − |
| CCCCC(CC)COC(=O)CC(C(=O)OCC(CC)CCCC)S(=O)(=O)[O-].[Na+] (stereo not shown) | − |
| O=C(CC(C(=O)OC1CCCCC1)S(=O)(=O)[O-])OC1CCCCC1.[Na+] (stereo not shown) | + |
| CC(C)CC(C)OC(=O)CC(C(=O)OC(C)CC(C)C)S(=O)(=O)[O-].[Na+] (stereo not shown) | − |

* * *

Tested on: Enterococcus fecalis
Method description: Growth on agar plates containing sodium surfactant; note: test concentration or dose not given here
Type: cell-based
Reported conditions: agar plates with sodium surfactant; strain EM19, second line; replicates 1-2 or 1-3
Property measured: Survival: No Growth/Full Growth

| Molecule | Property measured | Result |
| --- | --- | --- |
| CCCCC(CC)COP(=O)([O-])OCCC(CC)CCC.[Na+] (stereo not shown) | Survival: No Growth/Full Growth | − |
| O=C(CC(C(=O)OC1CCCCC1)S(=O)(=O)[O-])OC1CCCCC1.[Na+] (stereo not shown) | Survival: No Growth/Full Growth | + |
| CC(C)CC(C)OC(=O)CC(C(=O)OC(C)CC(C)C)S(=O)(=O)[O-].[Na+] (stereo not shown) | Survival: No Growth/Full Growth | + |
| CCCCC(CC)COC(=O)CC(C(=O)OCC(CC)CCCC)S(=O)(=O)[O-].[Na+] (stereo not shown) | Survival: No Growth/Full Growth | − |
